Items are presented alongside their recorded protein stability index.
B1: GMCL1 (parent)
chain: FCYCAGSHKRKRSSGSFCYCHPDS

Variants of: B1
Method description: protein stability index of a GFP-peptide fusion (GPS, HEK-293T) (PSI 1-6); higher = more stable;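 note: lentivirally expressed fusions sorted by FACS into six bins by GFP to DsRed ratio, PSI derived from sequencing read proportions per bin multiplied by bin number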
Measurement context: c terminus: a fixed tail appended
// no unit string in output, number only

// below: answered variants
Alteration	protein stability index
S14K	1.61
G6V	2.68
S16N	1.36
C20M	2.3
S13M	2.04
C4T	2.06
C20W	1.95
P22S	2.53
H21S	2.87
C4F	1.65

Enquiry: Need protein stability index of `D23M` , thanks.
Return: 2.39

Enquiry: Need protein stability index of `C18D` , thanks.
Return: 1.87

Enquiry: Need protein stability index of `S14M` , thanks.
Return: 2.04

Enquiry: Need protein stability index of `K9T` , thanks.
Return: 1.29

Enquiry: Need protein stability index of `A5V` , thanks.
Return: 2.67
